Assay: Long-term stability in spiked pooled human plasma
Details: validation standard LLOV
quantity_kind: Long-term stability, 3 month, -20°C Accuracy [%] (%)
Give bare numbers, in %.

compound	value_measured
Cc1ccc(Nc2nccc(N(C)c3ccc4c(C)n(C)nc4c3)n2)cc1S(N)(=O)=O	103.9
O=C1CN2Cc3c(ccc(Cl)c3Cl)N=C2N1 [Anagrelide]	101.8
Nc1cccc2c1C(=O)N(C1CCC(=O)NC1=O)C2=O (centres unmarked) [Pomalidomide]	97.6

Report Long-term stability, 3 month, -20°C Accuracy [%] for every entry below.
1. COc1cc2ncnc(Nc3ccc(F)c(Cl)c3)c2cc1OCCCN1CCOCC1
2. CCN1CCN(Cc2ccc(Nc3ncc(F)c(-c4cc(F)c5nc(C)n(C(C)C)c5c4)n3)nc2)CC1
3. CCC1=C[C@@H]2CN(C1)Cc1c([nH]c3ccccc13)[C@@](C(=O)OC)(c1cc3c(cc1OC)N(C)[C@H]1[C@@](O)(C(=O)OC)[C@H](OC(C)=O)[C@]4(CC)C=CCN5CC[C@]31[C@@H]54)C2
4. COc1cc2nccc(Oc3ccc(NC(=O)C4(C(=O)Nc5ccc(F)cc5)CC4)cc3)c2cc1OC [Cabozantinib]
5. COc1cc2nccc(Oc3ccc(NC(=O)Nc4cc(C)on4)c(Cl)c3)c2cc1OC

Given back:
1. 100.2
2. 95.7
3. 101.7
4. 90.4
5. 92.5

###

Could you please report measured Autosampler (72h, 4°C) Accuracy [%] for the items listed next?
Test: Autosampler stability of ready for injection samples
Assay type: physicochemical, human
Conditions: validation standard LLOV
In your response, the unit should come after the numeric value.

Example cases with answers are listed next.
compound	value_measured
CC[C@H](Nc1ncnc2[nH]cnc12)c1nc2cccc(F)c2c(=O)n1-c1ccccc1 [Idelalisib]	109.4%
C[C@@H](Oc1cc(-c2cnn(C3CCNCC3)c2)cnc1N)c1c(Cl)ccc(F)c1Cl [Crizotinib]	86.1%
CNCc1ccc(-c2[nH]c3cc(F)cc4c3c2CCNC4=O)cc1 [Rucaparib]	104.1%

Now for another entry.
Asked: What measured Autosampler (72h, 4°C) Accuracy [%] goes with CN(C)C/C=C/C(=O)Nc1cc2c(Nc3ccc(F)c(Cl)c3)ncnc2cc1O[C@H]1CCOC1 [Afatinib] ?
Given back: 83.0%

###

Assay: Short-term stability in spiked pooled human plasma (bench-top, 4 °C, 56 °C)
Conditions: validation standard MOV
Can you tell me Short-time stability (1h, 56°C) Accuracy [%] for the items I'm about to list?
Answers are plain numbers, in %.

// solved cases for Short-time stability (1h, 56°C) Accuracy [%] follow
molecule	value_measured
Nc1cccc2c1CN(C1CCC(=O)NC1=O)C2=O (centres unmarked) [Lenalidomide]	20.6
CN(C)C(=O)c1cc2cnc(Nc3ccc(N4CCNCC4)cn3)nc2n1C1CCCC1	50.5
CC(C)(C)c1nc(-c2cccc(NS(=O)(=O)c3c(F)cccc3F)c2F)c(-c2ccnc(N)n2)s1	42.4
CNCc1ccc(-c2[nH]c3cc(F)cc4c3c2CCNC4=O)cc1	52.2
CS(=O)(=O)CCNCc1ccc(-c2ccc3ncnc(Nc4ccc(OCc5cccc(F)c5)c(Cl)c4)c3c2)o1	46.1
O=C1CN2Cc3c(ccc(Cl)c3Cl)N=C2N1 [Anagrelide]	52.9
Cn1cnc2c(F)c(Nc3ccc(Br)cc3F)c(C(=O)NOCCO)cc21	42.6
COc1cc2ncnc(Nc3ccc(F)c(Cl)c3)c2cc1OCCCN1CCOCC1	49.1
COc1cc(N2CCC(N3CCN(C)CC3)CC2)ccc1Nc1ncc(Cl)c(Nc2ccccc2P(C)(C)=O)n1	38.5
CO[C@@H]1[C@H](N(C)C(=O)c2ccccc2)C[C@H]2O[C@]1(C)n1c3ccccc3c3c4c(c5c6ccccc6n2c5c31)C(=O)NC4	41.7

Provide reported Short-time stability (1h, 56°C) Accuracy [%] for each item, in the same order as listed.
1. C#Cc1cccc(Nc2ncnc3cc(OCCOC)c(OCCOC)cc23)c1
2. Nc1cccc2c1C(=O)N(C1CCC(=O)NC1=O)C2=O (centres unmarked) [Pomalidomide]
3. CNC(=O)c1ccc(N2C(=S)N(c3cnc(C#N)c(C(F)(F)F)c3)C(=O)C23CCC3)cc1F [Apalutamide]

Given back:
[52.1, 20.6, 41.2]

Required: Short-time stability (1h, 56°C) Accuracy [%], one value per molecule below.
1. Cc1nc(Nc2ncc(C(=O)Nc3c(C)cccc3Cl)s2)cc(N2CCN(CCO)CC2)n1
2. CCN(CC)CCNC(=O)c1c(C)[nH]c(/C=C2\C(=O)Nc3ccc(F)cc32)c1C

Given back:
[46.4, 44.2]

Go through the items and report each one's Short-time stability (1h, 56°C) Accuracy [%].
1. Cc1cc(Nc2ncc(Cl)c(Nc3ccccc3S(=O)(=O)C(C)C)n2)c(OC(C)C)cc1C1CCNCC1
2. CN(C)C/C=C/C(=O)Nc1cc2c(Nc3ccc(F)c(Cl)c3)ncnc2cc1O[C@H]1CCOC1

Given back:
1. 34.6
2. 36.2

###

Experiment: Long-term stability in spiked pooled human plasma
Settings: validation standard MOV
quantity_kind: Long-term stability, 1 month, -80°C Accuracy [%]
Returns: string containing the numeric result and its unit.

smiles_representation	value_measured
O=C(c1ccc(F)c(F)c1Nc1ccc(I)cc1F)N1CC(O)([C@@H]2CCCCN2)C1	96.8%
Cc1c(C(=O)Nc2ccc(N3C[C@@H](C)O[C@@H](C)C3)nc2)cccc1-c1ccc(OC(F)(F)F)cc1	108.0%

Asked: Form field: reported Long-term stability, 1 month, -80°C Accuracy [%] of CCC1=C[C@@H]2CN(C1)Cc1c([nH]c3ccccc13)[C@@](C(=O)OC)(c1cc3c(cc1OC)N(C)[C@H]1[C@@](O)(C(=O)OC)[C@H](OC(C)=O)[C@]4(CC)C=CCN5CC[C@]31[C@@H]54)C2
Given back: 88.9%

###

Test: Short-term stability in spiked pooled human plasma (bench-top, 4 °C, 56 °C)
Settings: validation standard MOV
I'd appreciate it if you could supply Short-time stability (24h, RT, without daylight) Accuracy [%] values for the items below.
Give bare numbers, in %.

Record excerpt, results attached:
compound	units_label	value_measured
CCN1CCN(Cc2ccc(Nc3ncc(F)c(-c4cc(F)c5nc(C)n(C(C)C)c5c4)n3)nc2)CC1	%	91.7
CC(C)(C)c1nc(-c2cccc(NS(=O)(=O)c3c(F)cccc3F)c2F)c(-c2ccnc(N)n2)s1	%	99.3
COC(=O)N[C@@H](C)CNc1nccc(-c2cn(C(C)C)nc2-c2cc(Cl)cc(NS(C)(=O)=O)c2F)n1	%	109.8

# batch: return Short-time stability (24h, RT, without daylight) Accuracy [%] for each of the 4 compounds below
1. NC(=O)c1cccc2cn(-c3ccc([C@@H]4CCCNC4)cc3)nc12
2. C#Cc1cccc(Nc2ncnc3cc(OCCOC)c(OCCOC)cc23)c1
3. COc1cc2ncnc(Nc3ccc(F)c(Cl)c3)c2cc1OCCCN1CCOCC1
4. CCOc1cc2ncc(C#N)c(Nc3ccc(OCc4ccccn4)c(Cl)c3)c2cc1NC(=O)/C=C/CN(C)C

Given back:
96.5
97.9
93.8
39.2

Give Short-time stability (24h, RT, without daylight) Accuracy [%] for each of the items listed below.
1. O=C(Nc1cnn2ccc(N3CCC[C@@H]3c3cc(F)ccc3F)nc12)N1CC[C@H](O)C1
2. C=CC(=O)Nc1cc(Nc2nccc(-c3cn(C)c4ccccc34)n2)c(OC)cc1N(C)CCN(C)C
3. CCC1=C[C@@H]2CN(C1)Cc1c([nH]c3ccccc13)[C@@](C(=O)OC)(c1cc3c(cc1OC)N(C)[C@H]1[C@@](O)(C(=O)OC)[C@H](OC(C)=O)[C@]4(CC)C=CCN5CC[C@]31[C@@H]54)C2
4. Cc1nc(Nc2ncc(C(=O)Nc3c(C)cccc3Cl)s2)cc(N2CCN(CCO)CC2)n1
5. Nc1cccc2c1C(=O)N(C1CCC(=O)NC1=O)C2=O (stereo not shown) [Pomalidomide]
6. Cc1ccc(C(=O)Nc2ccc(CN3CCN(C)CC3)c(C(F)(F)F)c2)cc1C#Cc1cnc2cccnn12
7. CNC(=O)c1cc(Oc2ccc(NC(=O)Nc3ccc(Cl)c(C(F)(F)F)c3)cc2)ccn1

Given back:
1: 110.8; 2: 72.0; 3: 70.0; 4: 90.0; 5: 51.2; 6: 102.6; 7: 91.9

Could you tell me Short-time stability (24h, RT, without daylight) Accuracy [%] for each of these compounds? They are listed below.
1. COc1cc(N2CCC(N3CCN(C)CC3)CC2)ccc1Nc1ncc(Cl)c(Nc2ccccc2P(C)(C)=O)n1
2. CO[C@@H]1[C@H](N(C)C(=O)c2ccccc2)C[C@H]2O[C@]1(C)n1c3ccccc3c3c4c(c5c6ccccc6n2c5c31)C(=O)NC4

Given back:
1. 93.4
2. 91.0

###

Provide the recorded Short-time stability (24h, 4°C, without daylight) Accuracy [%] for the entries that follow.
Experiment: Short-term stability in spiked pooled human plasma (bench-top, 4 °C, 56 °C)
Conditions: validation standard MOV
Answers are plain numbers, in %.

For orientation, consider the following solved cases.
compound	units_label	value_measured
O=C1CCC(N2C(=O)c3ccccc3C2=O)C(=O)N1 (centres unmarked) [Thalidomide]	%	60.7
Cc1nc(Nc2ncc(C(=O)Nc3c(C)cccc3Cl)s2)cc(N2CCN(CCO)CC2)n1 [Dasatinib]	%	100.1
Cc1[nH]c2ccccc2c1CCNCc1ccc(/C=C/C(=O)NO)cc1 [Panobinostat]	%	93.6
O=C(c1ccc(F)c(F)c1Nc1ccc(I)cc1F)N1CC(O)([C@@H]2CCCCN2)C1 [Cobimetinib]	%	102.5
CNC(=O)c1ccccc1Sc1ccc2c(/C=C/c3ccccn3)n[nH]c2c1 [Axitinib]	%	100.6

Quick one: give me Short-time stability (24h, 4°C, without daylight) Accuracy [%] for each item below, same order please.
1. CN(C)C/C=C/C(=O)Nc1cc2c(Nc3ccc(F)c(Cl)c3)ncnc2cc1O[C@H]1CCOC1 [Afatinib]
2. COc1cc2ncnc(Nc3ccc(F)c(Cl)c3)c2cc1OCCCN1CCOCC1 [Gefitinib]
3. CCOc1cc2ncc(C#N)c(Nc3ccc(OCc4ccccn4)c(Cl)c3)c2cc1NC(=O)/C=C/CN(C)C [Neratinib]

Given back:
[97.9, 103.4, 89.7]

Data origin: paper PMC8699473
